Target: Human glucocorticoid receptors (Homo sapiens, UniProt P04150)
Construct: made in house; host or cells: Sf9 insect cells, recombinant baculovirus (BAC-TO-BAC)
Sequence (P04150 whole entry): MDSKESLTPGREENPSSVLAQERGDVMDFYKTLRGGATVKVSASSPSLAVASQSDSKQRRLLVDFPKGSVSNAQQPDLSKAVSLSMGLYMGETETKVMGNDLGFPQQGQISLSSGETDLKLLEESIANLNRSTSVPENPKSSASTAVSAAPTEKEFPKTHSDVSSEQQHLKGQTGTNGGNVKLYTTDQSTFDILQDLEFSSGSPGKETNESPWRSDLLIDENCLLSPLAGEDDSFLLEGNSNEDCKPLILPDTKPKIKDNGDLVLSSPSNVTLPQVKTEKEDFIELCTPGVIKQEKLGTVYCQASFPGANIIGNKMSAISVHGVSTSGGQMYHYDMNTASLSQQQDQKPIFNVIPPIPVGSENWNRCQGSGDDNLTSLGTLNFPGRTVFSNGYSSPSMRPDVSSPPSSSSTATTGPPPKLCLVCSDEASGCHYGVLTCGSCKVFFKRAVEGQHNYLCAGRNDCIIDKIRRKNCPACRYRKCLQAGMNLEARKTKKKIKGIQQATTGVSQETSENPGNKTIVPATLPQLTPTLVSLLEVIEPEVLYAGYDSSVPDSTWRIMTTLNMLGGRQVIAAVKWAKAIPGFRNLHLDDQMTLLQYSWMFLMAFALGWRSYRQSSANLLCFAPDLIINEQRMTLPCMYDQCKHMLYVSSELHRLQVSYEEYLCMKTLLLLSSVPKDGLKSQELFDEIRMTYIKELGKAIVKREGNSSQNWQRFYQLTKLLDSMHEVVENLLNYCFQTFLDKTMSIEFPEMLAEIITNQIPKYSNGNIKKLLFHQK
Assay: Radioligand filter binding assay, displacement of 3(H)-dexamethasone from human glucocorticoid receptor cytosol
Conditions: 1.7 μM test compound; inhibition of 3(H)-dex binding to hGR; read-out: GR BINDING (% Inhibition @ 1.7 μM)
assay metric: inhibition at 1.7 µM

COc1cccc2c1-c1ccc(NS(C)(=O)=O)cc1C(c1ccc(/C=C/c3ccccc3)s1)O2 (centres unmarked): 91.3%
CS(=O)(=O)Nc1ccc2c(c1)C(c1ccccc1)Oc1cccc(OC(F)F)c1-2 (centres unmarked): 92.7%
COc1cccc2c1-c1ccc(NS(C)(=O)=O)cc1C(CCCCCCC#N)O2 (centres unmarked): 90.8%
COc1cccc2c1-c1ccc(NS(C)(=O)=O)cc1C(c1cccc(CCCC(=O)O)c1)O2 (centres unmarked): 69.5%
CCCN(C)c1ccc(C2Oc3cccc(OC(F)F)c3-c3ccc(N)c(Br)c32)cc1 (centres unmarked): 55%
CCOC(=O)CCC1Oc2cccc(OC)c2-c2ccc(NS(C)(=O)=O)cc21 (centres unmarked): 84.6%
COc1cccc2c1-c1ccc(NS(C)(=O)=O)cc1C(c1cccc(Oc3ccc(C(C)=O)cc3)c1)O2 (centres unmarked): 84.1%
C=CCOc1cccc2c1-c1ccc(NS(C)(=O)=O)cc1C(c1ccccc1)O2 (centres unmarked): 77.9%

meta.source: patent US6593480B2
